Entries annotated with measured Activity
study_target: Histone-lysine N-methyltransferase SUV39H2 (Homo sapiens) (UniProt Q9H5I1)
Sequence (Q9H5I1 whole entry): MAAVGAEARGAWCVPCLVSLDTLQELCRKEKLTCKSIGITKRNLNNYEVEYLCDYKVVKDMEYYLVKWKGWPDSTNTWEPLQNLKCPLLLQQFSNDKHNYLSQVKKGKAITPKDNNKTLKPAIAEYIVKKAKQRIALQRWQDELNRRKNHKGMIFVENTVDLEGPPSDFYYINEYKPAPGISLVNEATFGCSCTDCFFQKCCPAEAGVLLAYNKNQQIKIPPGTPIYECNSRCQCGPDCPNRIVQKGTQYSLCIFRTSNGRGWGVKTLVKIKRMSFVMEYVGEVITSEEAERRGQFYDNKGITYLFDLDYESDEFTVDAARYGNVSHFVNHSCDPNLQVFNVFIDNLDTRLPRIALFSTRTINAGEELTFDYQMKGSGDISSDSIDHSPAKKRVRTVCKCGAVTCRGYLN
procedure_details: Inhibition of SUV39H2 (unknown origin) using biotin-labeled histone substrate assessed as residual activity at 50 uM in presence of [3H-Me]SAM by scintillation proximity assay relative to control
Number plus unit, in that order.

Recorded Activity, per entry:
{"columns": ["compound", "study_target", "value_observed"],
 "data": [
  ["O=C(c1cccc(Br)c1)N1CC[C@H]2NCC[C@H]2C1", "Histone-lysine N-methyltransferase SUV39H2 (Homo sapiens) (UniProt Q9H5I1)", "83%"],
  ["CN1CCCCC12CCCN(C(=O)c1cccc(Br)c1)C2 (centres undefined)", "Histone-lysine N-methyltransferase SUV39H2 (Homo sapiens) (UniProt Q9H5I1)", "91%"],
  ["O=C(c1cccc(Br)c1)N1CCC2(CCNCC2)CC1", "Histone-lysine N-methyltransferase SUV39H2 (Homo sapiens) (UniProt Q9H5I1)", "95%"]
]}

Value (Activity, Histone-lysine N-methyltransferase SUV39H2 (Homo sapiens) (UniProt Q9H5I1)) for record CN1CC[C@H]2CN(C(=O)c3cccc(Br)c3)C[C@H]21 = 101%

Form field, Activity with Histone-lysine N-methyltransferase SUV39H2 (Homo sapiens) (UniProt Q9H5I1), item O=C(c1cccc(Br)c1)N1C[C@@H]2CCN[C@@H]2C1 : 88%

Form field Activity for item CN1CCCC12CCN(C(=O)c1cccc(Br)c1)CC2 on Histone-lysine N-methyltransferase SUV39H2 (Homo sapiens) (UniProt Q9H5I1): 94%

// returns Activity for CN1CCCC2(CCCN2C(=O)c2cccc(Br)c2)C1 (centres undefined) with Histone-lysine N-methyltransferase SUV39H2 (Homo sapiens) (UniProt Q9H5I1); value = 92%

The compound CN1C[C@H]2CCCN(C(=O)c3cccc(Br)c3)[C@H]2C1 , tested on Histone-lysine N-methyltransferase SUV39H2 (Homo sapiens) (UniProt Q9H5I1), showed Activity of 77%

Activity value, target or system Histone-lysine N-methyltransferase SUV39H2 (Homo sapiens) (UniProt Q9H5I1), for O=C(c1cccc(Br)c1)N1CCCC2(CCNCC2)C1 : 95%

Given the compound C[N+]1(C)CCCCC12CCN(C(=O)c1cccc(Br)c1)CC2 and test system Histone-lysine N-methyltransferase SUV39H2 (Homo sapiens) (UniProt Q9H5I1), the measured Activity is 114%

Reported Activity (Histone-lysine N-methyltransferase SUV39H2 (Homo sapiens) (UniProt Q9H5I1)) for entry O=C(c1cccc(Br)c1)N1CCC2CNCC2C1 (centres undefined) is 95%

The observed Activity for O=C(c1cccc(Br)c1)N1CCCC2(CCCCN2)C1 (centres undefined) when tested with Histone-lysine N-methyltransferase SUV39H2 (Homo sapiens) (UniProt Q9H5I1) stands at 91%

Query CN1CCCC2(CCCN(C(=O)c3cccc(Br)c3)C2)C1 (centres undefined) on Histone-lysine N-methyltransferase SUV39H2 (Homo sapiens) (UniProt Q9H5I1); Activity returned: 84%

Param item: CN1CCC2(CC1)CCN(C(=O)c1cccc(Br)c1)CC2 ; param system: Histone-lysine N-methyltransferase SUV39H2 (Homo sapiens) (UniProt Q9H5I1); output Activity: 116%

Result for O=C(c1cccc(Br)c1)N1C[C@@H]2CC3CCCN3[C@@H]2C1 (some centres undefined) , tested on Histone-lysine N-methyltransferase SUV39H2 (Homo sapiens) (UniProt Q9H5I1), Activity: 102%

Lab note: compound O=C(c1cccc(Br)c1)N1CCC[C@@H]2CNC[C@@H]21 tested on Histone-lysine N-methyltransferase SUV39H2 (Homo sapiens) (UniProt Q9H5I1); recorded Activity was 104%

Fill in: Histone-lysine N-methyltransferase SUV39H2 (Homo sapiens) (UniProt Q9H5I1) Activity for O=C(c1cccc(Br)c1)N1C[C@@H]2CC3CCCCN3[C@@H]2C1 (some centres undefined) = 108%

Item CN1CCC2(CCCN(C(=O)c3cccc(Br)c3)C2)C1 (centres undefined) was tested on Histone-lysine N-methyltransferase SUV39H2 (Homo sapiens) (UniProt Q9H5I1); the reported Activity is 84%

Reading of Activity for O=C(c1cccc(Br)c1)N1C[C@H]2CCCN[C@H]2C1 with Histone-lysine N-methyltransferase SUV39H2 (Homo sapiens) (UniProt Q9H5I1): 107%
